- Assay remarks: Inhibition of mouse brain synaptosomal Lysophosphatidylcholine acyltransferase using substrate [32P]lysophosphatidylcholine and oleoyl-CoA
Label true for high-side pKi (at or above 3) and false for low-side pKi (below it).

Molecule	Label class
CCCCCc1cc(O)c2c(c1)OC(C)(C)[C@@H]1CC=C(C)C[C@@H]21 [DELTA-8-TETRAHYDROCANNABINOL]	true
CCCCCCCCCO [NONANOL]	true
CCCCCc1cc(O)c2c(c1)OC(C)(C)c1ccc(C)cc1-2 [CANNABINOL]	true
Oc1ccc(Cl)cc1 [PARACHLOROPHENOL]	false
CCCCCc1cc(O)c(C/C=C(\C)CCC=C(C)C)c(O)c1 [CANNABIGEROL]	true
CCCCCCCCCCCCO [DODECANOL]	true
Oc1ccccc1Cl [2-CHLOROPHENOL]	false
CN(C)CCCN1c2ccccc2Sc2ccc(Cl)cc21 [CHLORPROMAZINE]	true
CCCCCCCCCCO [DECANOL]	true
CCCCCc1cc(O)c2c(c1)OC(C)(C)[C@@H]1CCC(C)=C[C@@H]21 [DRONABINOL]	true
CC1=C(/C=C/C(C)=C/C=C/C(C)=C/CO)C(C)(C)CCC1 [RETINOL]	true
CCCCCCc1cc(O)c2c(c1)OC(C)(C)C1=C2CC(C)CC1 (stereo not given)	true
CC(C)[C@]12CC(=O)[C@H](C)[C@H]1C2	true
CCCCCCCCO [OCTANOL]	false
CCCCCc1cc(O)c2c(c1)OC(C)(C)[C@@H]1CCC(CO)=C[C@@H]21	true

* * *

- Assay remarks: Molar volume, Vm of the compound at zero temperature
- Format: physicochemical

Compound	Vm
CCCCCc1cc(O)c2c(c1)OC(C)(C)c1ccc(C)cc1-2	2.601 ×10⁻⁴ m3/mol
CN(C)CCCN1c2ccccc2Sc2ccc(Cl)cc21	2.406 ×10⁻⁴ m3/mol
CCCCCc1cc(O)c2c(c1)OC(C)(C)[C@@H]1CCC(CO)=C[C@@H]21	2.746 ×10⁻⁴ m3/mol
Oc1ccccc1Cl	8.975 ×10⁻⁵ m3/mol
CCCCCCc1cc(O)c2c(c1)OC(C)(C)C1=C2CC(C)CC1 (centres undefined)	2.828 ×10⁻⁴ m3/mol
CCCCCCCCO	1.295 ×10⁻⁴ m3/mol
CC1=C(/C=C/C(C)=C/C=C/C(C)=C/CO)C(C)(C)CCC1	2.865 ×10⁻⁴ m3/mol
Oc1ccc(Cl)cc1	8.975 ×10⁻⁵ m3/mol
CCCCCCCCCCCCO	1.858 ×10⁻⁴ m3/mol
CC(C)[C@]12CC(=O)[C@H](C)[C@H]1C2	1.132 ×10⁻⁴ m3/mol
CCCCCc1cc(O)c(C/C=C(\C)CCC=C(C)C)c(O)c1	2.861 ×10⁻⁴ m3/mol
CCCCCc1cc(O)c2c(c1)OC(C)(C)[C@@H]1CCC(C)=C[C@@H]21	2.687 ×10⁻⁴ m3/mol
CCCCCCCCCCO	1.576 ×10⁻⁴ m3/mol
CCCCCc1cc(O)c2c(c1)OC(C)(C)[C@@H]1CC=C(C)C[C@@H]21 [DELTA-8-TETRAHYDROCANNABINOL]	2.687 ×10⁻⁴ m3/mol

Data credit: ChEMBL document CHEMBL3244214
